meta.source: patent US11981658B2

target: EGFR wildtype (WT) (Homo sapiens); assay: Biochemical EGFR kinase inhibition assay (Lance Ultra TR-FRET), wildtype; details: IC50 WT (nM), 100 μM ATP
Sequence (P00533 25-1210): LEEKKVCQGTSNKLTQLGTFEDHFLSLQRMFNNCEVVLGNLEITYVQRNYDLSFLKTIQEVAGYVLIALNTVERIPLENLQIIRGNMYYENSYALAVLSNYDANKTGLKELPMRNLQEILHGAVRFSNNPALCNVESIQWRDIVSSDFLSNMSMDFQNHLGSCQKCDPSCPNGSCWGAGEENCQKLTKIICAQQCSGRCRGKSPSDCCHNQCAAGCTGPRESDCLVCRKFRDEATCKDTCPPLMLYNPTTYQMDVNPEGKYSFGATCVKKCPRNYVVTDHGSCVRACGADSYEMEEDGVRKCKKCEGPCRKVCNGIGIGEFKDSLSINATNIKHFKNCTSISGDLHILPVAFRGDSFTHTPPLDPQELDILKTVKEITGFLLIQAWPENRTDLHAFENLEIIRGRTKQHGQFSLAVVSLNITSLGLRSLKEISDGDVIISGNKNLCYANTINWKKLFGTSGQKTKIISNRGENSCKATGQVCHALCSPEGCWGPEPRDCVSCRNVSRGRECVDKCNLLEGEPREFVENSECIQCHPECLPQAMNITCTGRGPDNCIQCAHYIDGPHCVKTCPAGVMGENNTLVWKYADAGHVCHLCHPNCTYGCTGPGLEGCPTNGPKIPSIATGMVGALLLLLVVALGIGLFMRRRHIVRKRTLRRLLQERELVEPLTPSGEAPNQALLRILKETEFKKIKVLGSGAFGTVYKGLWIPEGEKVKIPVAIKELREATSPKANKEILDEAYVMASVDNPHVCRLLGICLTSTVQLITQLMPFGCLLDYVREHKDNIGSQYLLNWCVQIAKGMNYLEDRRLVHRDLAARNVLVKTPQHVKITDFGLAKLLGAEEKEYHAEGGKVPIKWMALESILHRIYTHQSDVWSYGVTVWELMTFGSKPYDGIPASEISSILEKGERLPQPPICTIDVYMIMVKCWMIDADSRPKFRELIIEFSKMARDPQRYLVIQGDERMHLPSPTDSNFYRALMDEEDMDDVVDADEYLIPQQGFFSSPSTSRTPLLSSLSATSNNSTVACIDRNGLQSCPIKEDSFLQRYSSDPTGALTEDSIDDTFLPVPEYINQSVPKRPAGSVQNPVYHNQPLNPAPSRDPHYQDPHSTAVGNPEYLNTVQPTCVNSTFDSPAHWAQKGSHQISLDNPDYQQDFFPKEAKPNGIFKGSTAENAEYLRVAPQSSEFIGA
Below is a list of entries, each paired with its recorded IC50 value.

O=S(=O)(C1CC1)N1CCC(C#Cc2cnc(Nc3ccnc(-c4cnn(S(=O)(=O)C5CC5)c4)n3)cc2NC[C@H]2CC[C@H](CO)CC2)CC1 [Example 392]	> 10000 nM
CN(C)CCC1CCN(c2cc(Nc3ccnc(-c4cnn(S(=O)(=O)C5CC5)c4)n3)ncc2C#CC2CCO[C@H]2C(F)(F)F)CC1 (some centres unmarked) [Example 419]	> 10000 nM
O=S(=O)(C1CC1)n1cc(-c2nccc(Nc3cc(N4CCCC(O)C4)c(C#Cc4ccc(N5CCOCC5)nc4)cn3)n2)cn1 (centres unmarked) [Example 227]	> 10000 nM

Requested read-out: IC50. Entry: Cn1cnc(C#Cc2cnc(Nc3ccnc(-c4cnn(S(=O)(=O)C5CC5)c4)n3)cc2N2CCC(O)CC2)c1 [Example 213]
> 10000 nM

Entry O=S(=O)(C1CC1)n1cc(-c2nccc(Nc3cc(N[C@H]4CC[C@@H](O)CC4)c(C#Cc4ncc(CN5CCOCC5)cn4)cn3)n2)cn1 [Example 194] has what IC50?
> 10000 nM
